- ASSAY_METHOD_TEXT: Cytotoxicity, CellTiter-Blue, ACH-2 cells
- Type: cell-based
- MEASUREMENT_PARAMETERS: human; 48 h treatment; mean ± SD, n = 3
MEASURED_PROPERTY: CC50 (nM)
API: value field is a number in nM; no unit string.

Prompt: Recorded CC50 of CC(C)[C@H](C(=O)Nc1ccc(C(=O)NO)cc1)c1ccccc1 , please.
Response: 410

Prompt: Name the reported CC50 value associated with the compound O=C(/C=C/c1cccc(S(=O)(=O)Nc2ccccc2)c1)NO
Response: 1100

Prompt: Which CC50 reading was recorded for the compound CCN(CC)Cc1ccc2cc(COC(=O)Nc3ccc(C(=O)NO)cc3)ccc2c1 ?
Response: 630

Prompt: Recorded CC50 of CN(C)Cc1c(C(=O)NCCOc2ccc(C(=O)NO)cc2)oc2ccccc12 , please.
Response: 310

====

- System: J-Lat 10.6 cells
- ASSAY_METHOD_TEXT: HIV reactivation, GFP expression by flow cytometry, J-Lat 10.6 cells
- Assay type: cell-based, HIV-1
- MEASUREMENT_PARAMETERS: J-Lat 10.6; 48 h; 0.5 µM PKCa, 0.3 µM HDACi
Give measured GFP expression with respect to the PMA control set to 100 for each item. Keep answers brief.
Provide a numeric answer, followed by its unit.

Prompt: Which GFP expression with respect to the PMA control set to 100 reading was recorded for the compound CC(=O)O[C@@]12C[C@@H](C)[C@@]3(O)[C@@H](C=C(CO)C[C@]4(O)C(=O)C(C)=C[C@@H]34)[C@@H]1C2(C)C ?
Response: 37%

Prompt: What does the record list as GFP expression with respect to the PMA control set to 100 for CC(C)[C@H](C(=O)Nc1ccc(C(=O)NO)cc1)c1ccccc1 ?
Response: 10.2%

Prompt: Form field: reported GFP expression with respect to the PMA control set to 100 of CCN(CC)Cc1ccc2cc(COC(=O)Nc3ccc(C(=O)NO)cc3)ccc2c1
Response: 2.9%

Prompt: Value lookup for GFP expression with respect to the PMA control set to 100; key = CN(C)Cc1c(C(=O)NCCOc2ccc(C(=O)NO)cc2)oc2ccccc12
Response: 6.5%

====

- System: OM-10.1, U1, ACH-2, J-Lat 10.6 and J-Lat A2 cells
- Format: cell-based, HIV-1
- MEASUREMENT_PARAMETERS: Human immunodeficiency virus 1; range over all the cell lines tested; 48 h; read-out: EC50 HIV activation
MEASURED_PROPERTY: EC50

Prompt: Observed EC50 on OM-10.1, U1, ACH-2, J-Lat 10.6 and J-Lat A2 cells for O=C(/C=C/c1cccc(S(=O)(=O)Nc2ccccc2)c1)NO , please.
Response: 440 to 940 nM

Prompt: API: value(readout=EC50, system=OM-10.1, U1, ACH-2, J-Lat 10.6 and J-Lat A2 cells) for record CC(=O)O[C@@]12C[C@@H](C)[C@@]3(O)[C@@H](C=C(CO)C[C@]4(O)C(=O)C(C)=C[C@@H]34)[C@@H]1C2(C)C
Response: 300 to 870 nM

Prompt: Form entry - test system: OM-10.1, U1, ACH-2, J-Lat 10.6 and J-Lat A2 cells; read-out: EC50; compound: CC(C)[C@H](C(=O)Nc1ccc(C(=O)NO)cc1)c1ccccc1
Response: 240 to 550 nM
